Values compiled from ChEMBL document CHEMBL5236549.

assay: Inhibition of bacterial beta-lactamase CMY-2 using nitrocefin as substrate incubated for 20 mins; set-up: species or system Bacteria
The compounds listed here are annotated with their pIC50.
A value of pIC50 is the negative decimal logarithm of a concentration given in moles per litre.

Some entries whose results are on file:
O=C([O-])[C@@H](F)ON1C(=O)N2C[C@H]1CC[C@H]2[S@+]([O-])Cc1c[nH]cn1.[Na+]    7.23
C[S@@+]([O-])[C@@H]1CC[C@@H]2CN1C(=O)N2OC(F)(F)C(=O)[O-].[Na+]    7.59
O=C([O-])[C@@H](F)ON1C(=O)N2C[C@H]1CC[C@H]2[S@+]([O-])C[C@@H](O)CO.[Na+]    7.28
NS(=O)(=O)[C@@H]1CC[C@@H]2CN1C(=O)N2OC(F)(F)C(=O)O.[Na+]    5.87
O=C([O-])[C@@H](F)ON1C(=O)N2C[C@H]1CC[C@H]2[S@+]([O-])CCCO.[Na+]    7.41

Exercise: # input compound: "C[S@+]([O-])[C@@H]1CC[C@@H]2CN1C(=O)N2O[C@H](F)C(=O)[O-].[Na+]" ; wanted: its pIC50
Solution: 6.18

Exercise: What value of pIC50 has been reported for the following compound? "O=C([O-])[C@@H](F)ON1C(=O)N2C[C@H]1CC[C@H]2[S@+]([O-])CF.[Na+]"
Solution: 6.95

###

test: Cmax in mouse at 30 mg/kg,po by LC/MS/MS analysis; assay type: ADME, organism-based; design: dose 30 mg/kg, route po; conditions: in vivo
measured.quantity: Cmax (ng/mL)
Expressed in ng/mL, but write only the number.

Exercise: Record request: Cmax value, item "C[S@@+]([O-])[C@@H]1CC[C@@H]2CN1C(=O)N2O[C@H](F)C(=O)OC1CCCCC1"
Solution: 21400

###

assay: Cmax in mouse at 10 mg/kg,po by LC/MS/MS analysis; type: ADME, organism-based; set-up: dose 10 mg/kg, route po; conditions: in vivo
measured.quantity: Cmax (ng/mL)
Your answer is read as ng/mL, so omit the unit and give the number.

Exercise: Please look up its Cmax: "C[S@@+]([O-])[C@@H]1CC[C@@H]2CN1C(=O)N2O[C@H](F)C(=O)OC1CCCCC1"
Solution: 5600

###

// reported remaining at 16 h per item
assay: Stability of the compound in phosphate buffer at pH 7.0 assessed as parent compound remaining at 40 degreeC measured after 16 hrs; format: physicochemical; conditions: read-out: Stability
Value expressed in %; do not type the unit.

The cases that follow already have their remaining at 16 h on record.
C[S@@+]([O-])[C@@H]1CC[C@@H]2CN1C(=O)N2O[C@H](F)C(=O)OC1CCCCC1    56
C[S@@+]([O-])[C@@H]1CC[C@@H]2CN1C(=O)N2OC(F)(F)C(=O)[O-].[Na+]    17
NS(=O)(=O)[C@@H]1CC[C@@H]2CN1C(=O)N2O[C@H](F)C(=O)[O-].[Na+]    91
NS(=O)(=O)[C@@H]1CC[C@@H]2CN1C(=O)N2OC(F)(F)C(=O)O.[Na+]    55
CC(C)OC(=O)[C@@H](F)ON1C(=O)N2C[C@H]1CC[C@H]2[S@@+](C)[O-]    56
C[S@@+]([O-])[C@@H]1CC[C@@H]2CN1C(=O)N2O[C@H](F)C(=O)[O-].[Na+]    95

Here is the next item to consider.
Exercise: Look up remaining at 16 h: "CCOC(=O)[C@@H](F)ON1C(=O)N2C[C@H]1CC[C@H]2[S@@+](C)[O-]"
Solution: 11

###

assay: Stability in rat serum assessed as compound remaining at 5 micromol/L incubated for 30 mins by LC-MS/MS analysis; assay type: ADME, cell-free; conditions: dose 5 µmol/L, read-out: Stability
Recorded remaining at 0.5 h, 5 µM, one value per entry.

NS(=O)(=O)[C@@H]1CC[C@@H]2CN1C(=O)N2O[C@H](F)C(=O)[O-].[Na+]    78%
C[S@@+]([O-])[C@@H]1CC[C@@H]2CN1C(=O)N2O[C@H](F)C(=O)[O-].[Na+]    85%

--- query ---
Exercise: Endpoint output: remaining at 0.5 h, 5 µM of "NS(=O)(=O)[C@@H]1CC[C@@H]2CN1C(=O)N2OC(F)(F)C(=O)O.[Na+]" . Value?
Solution: 39%

###

assay: AUC in rat at 5 mg/kg,po by LC/MS/MS analysis; type: ADME, organism-based; set-up: dose 5 mg/kg, route po; details: in vivo
measured.quantity: AUC (ng·h/mL)
Give the number; ng·h/mL is assumed, so skip it.

CCOC(=O)[C@@H](F)ON1C(=O)N2C[C@H]1CC[C@H]2[S@@+](C)[O-]    2300
CC(C)OC(=O)[C@@H](F)ON1C(=O)N2C[C@H]1CC[C@H]2[S@@+](C)[O-]    2090

Then there is this molecule:
Exercise: Look up AUC: "C[S@@+]([O-])[C@@H]1CC[C@@H]2CN1C(=O)N2O[C@H](F)C(=O)OC1CCCCC1"
Solution: 1170

###

assay: Oral bioavailability in monkey at 10 mg/kg by LC/MS/MS analysis; type: ADME, organism-based, Macaca mulatta; conditions: rhesus monkey, in vivo
measured.quantity: bioavailability (%)
// units = %; emit number, no label

CCOC(=O)[C@@H](F)ON1C(=O)N2C[C@H]1CC[C@H]2[S@@+](C)[O-]    29.9
C[S@@+]([O-])[C@@H]1CC[C@@H]2CN1C(=O)N2O[C@H](F)C(=O)OC1CCCCC1    54.8

Consider the additional compound presented here.
Exercise: Give the measured bioavailability of "CC(C)OC(=O)[C@@H](F)ON1C(=O)N2C[C@H]1CC[C@H]2[S@@+](C)[O-]" .
Solution: 25.5

###

assay: Total clearance in dog at 5 mg/kg,iv by LC/MS/MS analysis; format: ADME, organism-based, Canis lupus familiaris; details: in vivo
measured.quantity: clearance (mL/min/kg)
Numbers only; they are read as mL/min/kg.

Exercise: Which clearance reading was recorded for the compound "C[S@@+]([O-])[C@@H]1CC[C@@H]2CN1C(=O)N2O[C@H](F)C(=O)[O-].[Na+]" ?
Solution: 4.3

###

Reported IC50 values follow for various compounds
assay: Inhibition of bacterial beta-lactamase CTX-M-15 using nitrocefin as substrate incubated for 20 mins; design: species or system Bacteria
Write the number in nM without appending the unit.

Observe how each entry below is paired with its result.
NCC[S@@+]([O-])[C@@H]1CC[C@@H]2CN1C(=O)N2O[C@H](F)C(=O)O.O=C(O)C(F)(F)F    159
NC(=O)/C(C[S@@+]([O-])[C@@H]1CC[C@@H]2CN1C(=O)N2O[C@H](F)C(=O)[O-])=N\O.[Na+] (stereo in doubt)    70
NS(=O)(=O)[C@@H]1CC[C@@H]2CN1C(=O)N2O[C@H](F)C(=O)[O-].[Na+]    249

Here is the next item to consider.
Exercise: Name the reported IC50 value associated with the compound "O=C([O-])[C@@H](F)ON1C(=O)N2C[C@H]1CC[C@H]2[S@+]([O-])C[C@@H](O)CO.[Na+]"
Solution: 10

###

Form field: IC50 (one value per entry).
assay: Inhibition of bacterial beta-lactamase CTX-M-15 using nitrocefin as substrate incubated for 20 mins; set-up: species or system Bacteria
Note: unit nM is implicit; provide only the numeric part.

Example entries begin here.
C[S@+]([O-])[C@@H]1CC[C@@H]2CN1C(=O)N2O[C@H](F)C(=O)[O-].[Na+]    445
NC(=O)OCC[S@@+]([O-])[C@@H]1CC[C@@H]2CN1C(=O)N2O[C@H](F)C(=O)[O-].[Na+]    14
O=C([O-])[C@@H](F)ON1C(=O)N2C[C@H]1CC[C@H]2[S@+]([O-])CCO.[Na+]    16

Exercise: Name the reported IC50 value associated with the compound "N#CC[S@@+]([O-])[C@@H]1CC[C@@H]2CN1C(=O)N2O[C@H](F)C(=O)[O-].[Na+]"
Solution: 7

###

test: Inhibition of bacterial beta-lactamase KPC-2 using nitrocefin as substrate incubated for 20 mins; parameters: species or system Bacteria
pIC50: −log10 of the molar value.
Binary call on pIC50: 1 from 7 upward, 0 beneath that.

Cc1nnc(C[S@@+]([O-])[C@@H]2CC[C@@H]3CN2C(=O)N3O[C@H](F)C(=O)[O-])o1.[Na+]    1

Exercise: Reported pIC50 reaches at least 7 for "NC(=O)OCC[S@@+]([O-])[C@@H]1CC[C@@H]2CN1C(=O)N2O[C@H](F)C(=O)[O-].[Na+]" ?
Solution: 1

Exercise: Is the recorded value of pIC50 equal to or greater than 7 for this compound? "C[S@+]([O-])[C@@H]1CC[C@@H]2CN1C(=O)N2O[C@H](F)C(=O)[O-].[Na+]"
Solution: 0
